Attribution: patent US10870647B2

# Target of assay: T315I (Ba/F3) (Homo sapiens, UniProt P00519, T315I, cells depend on it)
# Construct: fused on or other part: P11274 (Breakpoint cluster region protein)
# Test protocol: Cancer cell proliferation inhibition, CCK-8, 72 hours
# Assay type: cell-based
# Test parameters: read-out: T315I (Ba/F3) IC50
Simple rule here: GI50 less than 90 nM is t, otherwise f.

Structure as smiles	Target of assay	Discrete label
COCCn1cc(Nc2cccn3c(C#Cc4cc(C(=O)Nc5ccc(CN6CCN(C)CC6)c(C(F)(F)F)c5)ccc4C)cnc23)cn1	T315I (Ba/F3) (Homo sapiens, UniProt P00519, T315I, cells depend on it)	t
CN1CCN(Cc2ccc(NC(=O)c3cccc(C#Cc4cnc5c(Nc6cnn(C)c6)cccn45)c3)cc2C(F)(F)F)CC1	T315I (Ba/F3) (Homo sapiens, UniProt P00519, T315I, cells depend on it)	t
COCCn1cc(Nc2cccn3c(C#Cc4cc(C(=O)Nc5cc(C(C)(C)C)on5)ccc4C)cnc23)cn1	T315I (Ba/F3) (Homo sapiens, UniProt P00519, T315I, cells depend on it)	t
Cc1ccc(C(=O)Nc2cccc(C(F)(F)F)c2)cc1C#Cc1cnc2c(Nc3cc4n(n3)CCNC4)cccn12	T315I (Ba/F3) (Homo sapiens, UniProt P00519, T315I, cells depend on it)	t

# TODO verify GI50 < 90 nM strictly for this compound: Cc1ccc(Nc2cccn3c(C#Cc4cc(C(=O)Nc5ccc(CN6CCN(C)CC6)c(C(F)(F)F)c5)ccc4C)cnc23)cc1
f

Hello, is GI50 of the following compound strictly smaller than 90 nM? Cc1ccc(C(=O)Nc2cccc(C(F)(F)F)c2)cc1C#Cc1cnc2c(Nc3cnn(CCN(C)C)c3)cccn12
f

Consider the compound Cc1ccc(C(=O)Nc2ccc(CN3CCN(C)CC3)c(C(F)(F)F)c2)cc1C#Cc1cnc2c(Nc3ccc(C(F)(F)F)cc3)cccn12 . Is its GI50 strictly less than 90 nM?
f

----------
# System: MDA-MB-231
# Test protocol: Real time cell proliferation, IncuCyte ZOOM, 72 hours
# Assay type: cell-based
# Test parameters: Homo sapiens, MDA-MB-231, 72 h
Quantity measured: IC50

Structure as smiles	IC50
Cc1ccc(C(=O)Nc2ccccc2F)cc1C#Cc1cnc2c(Nc3cnn(C)c3)cccn12	> 10 µM

Field request: IC50 | item: COc1cc(NC(=O)c2ccc(C)c(C#Cc3cnc4c(Nc5cnn(C)c5)cccn34)c2)cc(OC)c1
> 10 µM

Name the recorded IC50 for Cc1ccc(C(=O)Nc2ccc(CN3CCN(C)CC3)c(C(F)(F)F)c2)cc1C#Cc1cnc2c(Nc3ccccc3N)cccn12 .
> 10 µM

----------
Reported GI50 values are given for each entry in this list.
# Target of assay: T315I (Ba/F3) (Homo sapiens, UniProt P00519, T315I, cells depend on it)
# Construct: fused on or other part: P11274 (Breakpoint cluster region protein)
# Test protocol: Cancer cell proliferation inhibition, CCK-8, 72 hours
# Assay type: cell-based
# Test parameters: read-out: T315I (Ba/F3) IC50
# Description: MTS assay was performed to evaluate the cancer cell proliferation inhibition (cancer cell apoptosis) effect of the compounds of examples of the present invention. […] A375, K-562 and Ba/F3-T315I cells were added with CCK-8 solution at the concentration of 10 μl/well, followed by orbital shaking for 30 seconds. […] OD450 was measured by using a microplate reader. […]

Recorded GI50, per entry:
Structure as smiles	Result
COc1ccc(NC(=O)c2ccc(C)c(C#Cc3cnc4c(Nc5cnn(C)c5)cccn34)c2)cc1F	> 10 µM
Cc1ccc(C(=O)Nc2ccccc2F)cc1C#Cc1cnc2c(Nc3cnn(C)c3)cccn12	> 10 µM

# lookup: GI50 of Cc1ccc(C(=O)Nc2ccc3cccnc3c2)cc1C#Cc1cnc2c(Nc3cnn(C)c3)cccn12
> 10 µM

----------
# reported pIC50; entries follow
# System: A375
# Test protocol: Cancer cell proliferation inhibition, CCK-8, 72 hours
# Assay type: cell-based
# Test parameters: Homo sapiens, A-375, 72 h
# Procedure: MTS assay was performed to evaluate the cancer cell proliferation inhibition (cancer cell apoptosis) effect of the compounds of examples of the present invention. […] A375, K-562 and Ba/F3-T315I cells were added with CCK-8 solution at the concentration of 10 μl/well, followed by orbital shaking for 30 seconds. […] OD450 was measured by using a microplate reader. […]
pIC50: −log10 of the molar value.

Example molecules with recorded pIC50:
Structure as smiles	Result
CCN1CCN(Cc2ccc(NC(=O)c3ccc(C)c(C#Cc4cnc5c(Nc6ncccc6F)cccn45)c3)cc2C(F)(F)F)CC1	< 5.00
Cc1ccc(C(=O)Nc2ccc3ncsc3c2)cc1C#Cc1cnc2c(Nc3cnn(C)c3)cccn12	< 5.00
Cc1ccc(C(=O)Nc2ccc(CN3CCN(C)CC3)c(C(F)(F)F)c2)cc1C#Cc1cnc2c(Nc3ccccc3N)cccn12	< 5.00
Cc1ccc(NC(=O)C2(C(=O)Nc3ccc(F)cc3)CC2)cc1C#Cc1cnc2c(Nc3cnn(C)c3)cccn12	< 5.00
Cc1ccc(C(=O)Nc2ccc(CN3CCN(C)CC3)c(C(F)(F)F)c2)cc1C#Cc1cnc2c(Nc3ncccc3C)cccn12	< 5.00
Cc1ccc(C(=O)Nc2cccc(C(F)(F)F)c2)cc1C#Cc1cnc2c(Nc3cnn(C4CCN(C)CC4)c3)cccn12	4.23
Cc1ccc(C(=O)Nc2ccc(CN3CCN(C)CC3)c(C(F)(F)F)c2)cc1C#Cc1cnc2c(Nc3cccc(C(C)(C)O)n3)cccn12	6.13

Now let's try a different one.
Fill in the blank: the reported pIC50 of COCCn1cc(Nc2cccn3c(C#Cc4cc(C(=O)Nc5ccc(CN6CCN(C)CC6)c(C(F)(F)F)c5)ccc4C)cnc23)cn1 is ____.
6.97

----------
# Test system: MDA-MB-231
# Test protocol: Real time cell proliferation, IncuCyte ZOOM, 72 hours
# Type: cell-based
# Test parameters: Homo sapiens, MDA-MB-231, 72 h
Each item that follows carries a reported IC50.

Structure as smiles	IC50
Cc1ccc(NC(=O)Nc2cc(C(C)(C)C)on2)cc1C#Cc1cnc2c(Nc3cnn(C(C)C)c3)cccn12	> 10 µM
Cc1ccc(NC(=O)Nc2cc(C(C)(C)C(F)(F)F)on2)cc1C#Cc1cnc2c(Nc3cnn(C(C)C)c3)cccn12	> 10 µM

Would you kindly share the measured IC50 for Cc1ccc(C(=O)Nc2ccc3cccnc3c2)cc1C#Cc1cnc2c(Nc3cnn(C)c3)cccn12 ?
> 10 µM

----------
# Target of assay: T315I (Ba/F3) (Homo sapiens, UniProt P00519, T315I, cells depend on it)
# Construct: fused on or other part: P11274 (Breakpoint cluster region protein)
# Test protocol: Cancer cell proliferation inhibition, CCK-8, 72 hours
# Format: cell-based
# Test parameters: read-out: T315I (Ba/F3) IC50
Quantity measured: GI50 (µM)
The answer is to be given in µM; state only the numeric part.

Example results:
Compound	GI50 (µM)
Cc1ccc(C(=O)Nc2cccc(F)c2)cc1C#Cc1cnc2c(Nc3cnn(C)c3)cccn12	8.44
Cc1ccc(C(=O)Nc2ccc(CN3CCN(C)[C@@H](C)C3)c(C(F)(F)F)c2)cc1C#Cc1cnc2c(Nc3cnn(C(C)C)c3)cccn12	0.0863
Cc1ccc(C(=O)Nc2ccc3ncsc3c2)cc1C#Cc1cnc2c(Nc3cnn(C)c3)cccn12	0.663

Which GI50 is listed for Cc1ccc(NC(=O)Nc2ccc(CN3CCN(C)CC3)c(C(F)(F)F)c2)cc1C#Cc1cnc2c(Nc3cnn(C(C)C)c3)cccn12 ?
0.063

Recorded GI50 of COCCn1cc(Nc2cccn3c(C#Cc4cc(C(=O)Nc5ccc(CN6CCC(N(C)C)C6)c(C(F)(F)F)c5)ccc4C)cnc23)cn1 (centres unmarked) , please.
0.0398

What value of GI50 has been recorded for this entry: CCN1CCN(Cc2ccc(NC(=O)c3ccc(C)c(C#Cc4cnc5c(Nc6cnn(CCN(C)C)c6)cccn45)c3)cc2C(F)(F)F)CC1
0.421

Suppose we examine the compound CCn1cc(Nc2cccn3c(C#Cc4cc(C(=O)Nc5ccc(CN6CC[C@H](N(C)C)C6)c(C(F)(F)F)c5)ccc4C)cnc23)cn1 ; what GI50 value has been reported?
0.0309

----------
# Target of assay: Ret^wt (Ba/F3) (Homo sapiens)
# Construct: candidates are KIF5B, CCDC6, TEL (ETV6), or none (full-length RET)
# Sequence (P07949 whole entry, change not shown): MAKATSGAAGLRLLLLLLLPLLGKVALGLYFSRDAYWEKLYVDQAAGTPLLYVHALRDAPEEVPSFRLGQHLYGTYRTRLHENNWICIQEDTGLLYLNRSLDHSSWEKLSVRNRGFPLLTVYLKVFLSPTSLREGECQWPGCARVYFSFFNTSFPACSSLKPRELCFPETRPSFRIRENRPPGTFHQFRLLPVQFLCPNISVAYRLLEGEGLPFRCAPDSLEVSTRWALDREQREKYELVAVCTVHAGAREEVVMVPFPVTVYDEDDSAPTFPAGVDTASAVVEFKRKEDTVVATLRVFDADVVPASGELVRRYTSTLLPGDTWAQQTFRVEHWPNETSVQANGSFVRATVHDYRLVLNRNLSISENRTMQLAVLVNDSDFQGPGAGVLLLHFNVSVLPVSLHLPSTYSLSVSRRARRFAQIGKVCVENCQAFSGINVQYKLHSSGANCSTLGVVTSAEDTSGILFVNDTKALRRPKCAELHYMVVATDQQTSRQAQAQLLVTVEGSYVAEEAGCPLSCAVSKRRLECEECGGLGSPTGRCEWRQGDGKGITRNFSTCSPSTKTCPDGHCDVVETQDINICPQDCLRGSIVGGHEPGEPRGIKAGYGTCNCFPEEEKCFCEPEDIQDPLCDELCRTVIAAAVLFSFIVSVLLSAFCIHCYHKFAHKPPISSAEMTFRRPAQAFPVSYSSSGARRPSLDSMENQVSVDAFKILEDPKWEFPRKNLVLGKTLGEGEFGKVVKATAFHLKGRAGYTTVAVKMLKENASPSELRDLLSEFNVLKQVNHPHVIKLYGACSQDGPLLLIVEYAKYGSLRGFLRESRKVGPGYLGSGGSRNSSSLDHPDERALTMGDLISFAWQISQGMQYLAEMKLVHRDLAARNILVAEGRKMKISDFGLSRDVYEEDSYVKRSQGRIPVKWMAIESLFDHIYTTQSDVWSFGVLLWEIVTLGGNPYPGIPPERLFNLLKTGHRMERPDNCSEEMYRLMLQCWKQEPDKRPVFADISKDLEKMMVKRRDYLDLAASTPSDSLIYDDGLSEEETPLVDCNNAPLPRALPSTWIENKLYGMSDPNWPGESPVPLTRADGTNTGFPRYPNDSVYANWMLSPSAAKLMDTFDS
# Test protocol: Cancer cell proliferation inhibition, MTS assay, 72 hours
# Type: cell-based
# Test parameters: read-out: Ret^wt (Ba/F3) IC50
Decision: GI50 beneath 20 nM gives Condition met; GI50 meeting or exceeding 20 nM gives Condition not met.

Take a look at these entries with their results.
Compound	Discrete label
Cc1ccc(C(=O)Nc2ccc(Cl)cc2)cc1C#Cc1cnc2c(Nc3cnn(C)c3)cccn12 [Example 7]	Condition not met
Cc1ccc(C(=O)Nc2ccc(CN3CCN(C)CC3)c(C(F)(F)F)c2)cc1C#Cc1cnc2c(Nc3ncccc3C)cccn12 [Example 18]	Condition not met

# ---- query compound ----
Input COc1ccc(NC(=O)c2ccc(C)c(C#Cc3cnc4c(Nc5cnn(C)c5)cccn34)c2)cc1F [Example 4] ; condition: GI50 strictly below 20 nM. Does it hold?
Condition not met
